target: human β3 adrenergic receptor (Homo sapiens, UniProt P13945); construct: expressed in transfected cells; assay: whole cell receptor coupled c-AMP assay (Emax relative to isoproterenol); type: cell-based; settings: CHO, % intrinsic activity: maximal response divided by isoproterenol maximal response times 100; transfected CHO cells; average of at least 3 runs
Sequence (P13945 whole entry): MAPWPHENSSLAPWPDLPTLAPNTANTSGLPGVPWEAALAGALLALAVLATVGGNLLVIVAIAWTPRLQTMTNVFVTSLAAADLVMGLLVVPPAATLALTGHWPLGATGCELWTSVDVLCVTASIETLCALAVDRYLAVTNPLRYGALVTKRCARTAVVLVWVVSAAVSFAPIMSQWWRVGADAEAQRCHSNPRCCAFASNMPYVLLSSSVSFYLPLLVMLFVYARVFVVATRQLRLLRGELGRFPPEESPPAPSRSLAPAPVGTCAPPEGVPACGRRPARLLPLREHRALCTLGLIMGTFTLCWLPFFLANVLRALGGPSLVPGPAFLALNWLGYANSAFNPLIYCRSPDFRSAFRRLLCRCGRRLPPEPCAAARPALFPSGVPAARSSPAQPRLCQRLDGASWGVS
readoutName: Emax (%)

- molecule: "CC(C)(Cc1c[nH]c2c(/C=C/C(=O)O)cccc12)NC[C@H](O)COc1ccccc1-c1cccs1 [Example 227]"
  readoutUnit: "%"
  recordedNumber: 87.5

1: CC(C)(Cc1c[nH]c2c(CCn3cncn3)cccc12)NC[C@H](O)COc1ccccc1-c1cccs1 [Example 222]
2: C[C@H](Cn1ccc2cc(C(=O)O)ccc21)NC[C@H](O)COc1ccccc1-c1cccs1 [Example 243]
## Task Endpoint returns the identifier whose Emax is numerically larger, either 1 or 2 . Response format: the label of the selected entry.
## Result 1
(1: 81.2%, 2: 48.4%)

* * *

Molecular target: human β3 adrenergic receptor (Homo sapiens, UniProt P13945)
Construct: expressed in transfected cells
Assay: whole cell receptor coupled c-AMP assay (Emax relative to isoproterenol)
Format: cell-based
Details: % intrinsic activity: maximal response divided by isoproterenol maximal response times 100; transfected CHO cells; average of at least 3 runs
Experimental: […] Cells from each of the above cell lines are resuspended and added (20,000/well) to a 96-well plate. […] After halting the incubation with quench buffer (50 mM Na Acetate, 0.25% Triton X-100, pH 5.8), the c-AMP level is quantified by scintillation proximity assay (SPA) using a modification of the commercially available c-AMP kit (Amersham, Arlington Heights, Ill.) with rabbit anti-cAMP antibody (ICN Biomedicals, Aurora, Ohio) for the kit. […]
readoutName: Emax (%) ± SEM

- compound: "C[C@H](Cn1ccc2c(OCC#N)cccc21)NC[C@H](O)COc1ccccc1-c1cccs1"
  readoutUnit: "%"
  Emax (%) ± SEM: 63.1
- compound: "CC(C)(Cc1c[nH]c2c(-c3ccc(C(F)(F)F)cc3)cccc12)NC[C@H](O)COc1ccccc1-c1ccon1"
  readoutUnit: "%"
  Emax (%) ± SEM: 69.1
- compound: "CC(C)(Cc1c[nH]c2c(C=CC#N)cccc12)NCC(O)COc1ccccc1-c1cccs1 (stereo not drawn)"
  readoutUnit: "%"
  Emax (%) ± SEM: 66.4
